target: P2X7 (Homo sapiens (Human), UniProt Q99572); test: P2X7 antagonism in human PBMCs (LPS + Bz-ATP induced IL-1β release, ELISA); assay type: cell-based; conditions: compound 1 μM, LPS 30 ng/ml, Bz-ATP 0.5 mM
Sequence (Q99572 whole entry): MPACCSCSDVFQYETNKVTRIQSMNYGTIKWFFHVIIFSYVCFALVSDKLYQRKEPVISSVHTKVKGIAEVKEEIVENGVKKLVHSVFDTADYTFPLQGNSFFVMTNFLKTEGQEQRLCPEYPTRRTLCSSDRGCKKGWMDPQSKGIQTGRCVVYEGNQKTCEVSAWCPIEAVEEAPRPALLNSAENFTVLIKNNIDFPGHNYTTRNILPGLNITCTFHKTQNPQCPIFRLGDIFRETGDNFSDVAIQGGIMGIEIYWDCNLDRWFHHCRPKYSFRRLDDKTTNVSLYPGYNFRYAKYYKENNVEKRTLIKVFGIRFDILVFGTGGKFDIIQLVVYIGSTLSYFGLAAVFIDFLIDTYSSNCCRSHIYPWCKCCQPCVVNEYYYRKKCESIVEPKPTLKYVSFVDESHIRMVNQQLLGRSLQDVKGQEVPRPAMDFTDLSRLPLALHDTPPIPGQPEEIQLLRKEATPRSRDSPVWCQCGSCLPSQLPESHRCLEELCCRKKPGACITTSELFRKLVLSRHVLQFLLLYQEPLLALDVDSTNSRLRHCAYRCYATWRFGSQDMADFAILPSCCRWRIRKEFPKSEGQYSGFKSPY
measurement_kind: PBMC 1 μM (% control)

1. O=C(c1cccc2c1OCC2)N1CCc2c(ncn2-c2ccccc2)C1
2. CC1c2nnn(-c3cnccn3)c2C=CN1C(=O)c1cccc(C(F)(F)F)c1Cl (stereo not shown)
3. O=C(c1cccc(C(F)(F)F)c1Cl)N1CCc2c(-c3ccccc3)n[nH]c2C1
4. CN(C)CC1c2ncn(-c3ccccn3)c2CCN1C(=O)c1cccc(C(F)(F)F)c1Cl (stereo not shown)
Input line: Sort by PBMC 1 μM (% control) with smallest numbers at the start of the list. List the labels in the requested order.
Output line: 2, 3, 4, 1
(2: −5.7 % control, 3: 7.0 % control, 4: 50.8 % control, 1: 97.6 % control)

----------
target: P2X7 (Homo sapiens (Human), UniProt Q99572); assay: P2X7 antagonism in human PBMCs (LPS + Bz-ATP induced IL-1β release, ELISA); type: cell-based; settings: compound 1 μM, LPS 30 ng/ml, Bz-ATP 0.5 mM;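 note: PBMCs from donor human blood, with a further 1.5 h incubation of the cells in the assay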
measurement_kind: PBMC 1 μM (% control)

I. O=C(c1cccc(C(F)(F)F)c1Cl)N1C=Cc2c(nnn2-c2cnccn2)C1
II. CC1c2ncn(-c3ccccn3)c2CCN1C(=O)c1cccc(C(F)(F)F)c1Cl (centres unmarked)
Input line: Hi! Which is lower in terms of PBMC 1 μM (% control), the first one I or the second one II ? # answer = label of selected item
Output line: I

1. O=C(c1c(F)cccc1Cl)N1CCc2c(-c3ccccc3)n[nH]c2C1
2. O=C(c1cccc(C(F)(F)F)c1Cl)N1CCc2c(nnn2-c2ccccc2)C1
Input line: Hi! Which is lower in terms of PBMC 1 μM (% control), the first one 1 or the second one 2 ? # answer = label of selected item
Output line: 2

----------
target: P2X7 (Homo sapiens (Human), UniProt Q99572); assay: Ca2+ flux (FLIPR) in 1321N1 cells expressing recombinant human P2X7 channel; format: cell-based; settings: 250 μM BzATP;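 note: Calcium-4 dye-loaded cells exposed to compound for 30 min before agonist addition, fluorescence change read 180 s after agonist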
pIC50: −log10 of the molar value.
measurement_kind: pIC50

Input line: Under P2X7 (Homo sapiens (Human), UniProt Q99572): pIC50 value of O=C(c1cccc(C(F)(F)F)c1Cl)N1CCc2c(ncn2-c2cnccn2)C1 [Example 6] ?
Output line: 8.03

P. CC1c2nnn(-c3ccc(F)cn3)c2CCN1C(=O)c1cccc(C(F)(F)F)c1Cl (stereo not shown) [Example 71]
Q. C[C@@H]1c2nnn(-c3ncccn3)c2CCN1C(=O)c1cccc(C(F)(F)F)c1F (single isomer, unassigned) [Example 271]
R. CC1c2nnn(-c3ncccn3)c2C=CN1C(=O)c1cccc(C(F)(F)F)c1Cl (stereo not shown) [Example 79]
Input line: Arrange items by their pIC50 values in increasing order. List the labels in the requested order.
Output line: P, R, Q
(P: 7.31, R: 8.21, Q: 8.48)

----------
biological target: rat P2X7 (Rattus norvegicus (Rat), UniProt Q64663); assay: Ca2+ flux (FLIPR) in 1321N1 cells expressing recombinant rat P2X7 channel; details: 250 μM BzATP;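 note: Calcium-4 dye fluorescence change read 180 s after agonist addition, following 30 min cell preincubation with test compound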
Sequence (Q64663 whole entry): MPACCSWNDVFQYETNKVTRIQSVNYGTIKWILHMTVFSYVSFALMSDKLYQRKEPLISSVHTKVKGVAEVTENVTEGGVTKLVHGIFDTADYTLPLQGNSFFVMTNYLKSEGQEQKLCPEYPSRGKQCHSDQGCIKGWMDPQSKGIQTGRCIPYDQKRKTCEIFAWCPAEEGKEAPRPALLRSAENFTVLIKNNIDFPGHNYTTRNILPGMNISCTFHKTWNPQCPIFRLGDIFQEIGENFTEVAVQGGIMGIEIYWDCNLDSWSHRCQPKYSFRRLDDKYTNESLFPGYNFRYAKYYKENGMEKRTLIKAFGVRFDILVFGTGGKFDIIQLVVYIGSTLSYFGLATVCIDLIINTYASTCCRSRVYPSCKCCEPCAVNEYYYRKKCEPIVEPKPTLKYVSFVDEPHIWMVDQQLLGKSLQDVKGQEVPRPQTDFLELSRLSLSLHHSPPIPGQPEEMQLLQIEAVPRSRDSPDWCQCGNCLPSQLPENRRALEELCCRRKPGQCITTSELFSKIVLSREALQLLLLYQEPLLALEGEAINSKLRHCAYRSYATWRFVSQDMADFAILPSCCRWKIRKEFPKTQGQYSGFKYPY
measurement_kind: IC50 (nM)

Before answering, review these 2 worked examples.
Input line: Record request: IC50 value, item CCc1ccnc(-n2nnc3c2CCN(C(=O)c2cccc(C(F)(F)F)c2Cl)[C@@H]3C)n1 (single isomer, unassigned)
Output line: 2.8

Input line: Record request: IC50 value, item O=C(c1cccc(Cl)c1Cl)N1CCc2c(-c3ccc(F)cc3)n[nH]c2C1
Output line: 1260

a. O=C(c1ccnc(Cl)c1Cl)N1CCc2c(-c3ccccc3)n[nH]c2C1
b. O=C(c1cccc(C(F)(F)F)c1Cl)N1CCc2c(-c3cccnc3)n[nH]c2C1
c. CC1c2nnn(-c3ccc(F)cc3)c2CCN1C(=O)c1cccc(C(F)(F)F)c1Cl (stereo not shown)
d. Cc1cc(C)nc(-n2nnc3c2CCN(C(=O)c2cccc(Cl)c2Cl)C3C)c1 (stereo not shown)
e. C[C@H]1Cc2c(nnn2-c2ncccn2)CN1C(=O)c1cccc(C(F)(F)F)c1Cl (single isomer, unassigned)
Input line: Falling order of IC50, please. List the labels in the requested order.
Output line: d, a, c, b, e
(d: 38200 nM, a: 1610 nM, c: 397 nM, b: 179 nM, e: 1 nM)

a. O=C(c1cccc(C(F)(F)F)c1Cl)N1CCc2c(nnn2-c2ccccc2)C1
b. O=C(c1cccc(C(F)(F)F)c1Cl)N1CCc2c(-c3ccc(F)cn3)n[nH]c2C1
c. O=C(c1cccc(Cl)c1Cl)N1CCc2c(nc(C(F)(F)F)n2-c2ccccc2)C1
d. CC1Cc2c(-c3ccn[nH]3)n[nH]c2CN1C(=O)c1cccc(C(F)(F)F)c1Cl (stereo not shown)
e. CC1c2c(nnn2-c2ccccc2)CCN1C(=O)c1cccc(C(F)(F)F)c1Cl (stereo not shown)
Input line: Falling order of IC50, please. List the labels in the requested order.
Output line: e, a, c, b, d
(e: 2410 nM, a: 1400 nM, c: 766 nM, b: 123 nM, d: 9.5 nM)

A. C[C@H]1c2ncn(-c3ccccn3)c2CCN1C(=O)c1cccc(Cl)c1Cl (single isomer, unassigned)
B. CC1c2nnn(-c3cnccn3)c2CCN1C(=O)c1cccc(C(F)(F)F)c1F (stereo not shown)
Input line: When their IC50 values are compared, which is larger, A or B ? # answer = label of selected item
Output line: A

a. O=C(c1cccc(Cl)c1Cl)N1CCc2c(nnn2-c2cnccn2)C1
b. C[C@H]1c2nnn(-c3ccn(C)n3)c2CCN1C(=O)c1cccc(C(F)(F)F)c1Cl (single isomer, unassigned)
Input line: When their IC50 values are compared, which is larger, a or b ? # answer = label of selected item
Output line: a

The values you see were collected from patent US9464084B2.
